System: DMS 273 small cell lung
Experiment: NCI tumour cell line growth inhibition, 48 h
Property Measured: TGI

{"Compound": "CCCCCCCCCCNC(=S)OCCCC", "Property Measured": "TGI", "Measurement": "42.3 µM"}
{"Compound": "O=c1[nH]c(=O)n(C2OC(CO)C(O)C2O)cc1OCc1ccccc1 (configuration not stated)", "Property Measured": "TGI", "Measurement": "> 100 µM"}
{"Compound": "O=C(CC(=O)c1cccc([N+](=O)[O-])c1)C(=O)Nc1nc([N+](=O)[O-])cs1", "Property Measured": "TGI", "Measurement": "> 100 µM"}
{"Compound": "CSC1CC2C(CC1(C)SC)C2(C)C (configuration not stated)", "Property Measured": "TGI", "Measurement": "> 100 µM"}
{"Compound": "O=C1C2C3CCC(C2C(=O)N1CO)C1C2C(=O)N(CO)C(=O)C2C31 (configuration not stated)", "Property Measured": "TGI", "Measurement": "> 58.1 µM"}
{"Compound": "N#CC(C#N)=Cc1ccc(Oc2ccccc2)cc1", "Property Measured": "TGI", "Measurement": "37 µM"}
{"Compound": "Cc1ccc(C(O)/C(=N/N)c2nc3ccc([N+](=O)[O-])cc3[nH]c2=O)cc1 (configuration not stated)", "Property Measured": "TGI", "Measurement": "> 100 µM"}
{"Compound": "CCC[CH2][Ge]([CH2]CCC)([CH2]CCC)[O]C(=O)C(OC(C)=O)c1ccccc1 (configuration not stated)", "Property Measured": "TGI", "Measurement": "> 37 µM"}
{"Compound": "C[C@]12CC/C(=N\\OC(=O)Nc3ccccc3)C=C1CC[C@@H]1C2CC[C@@]2(C)C1CC[C@@H]2OC(=O)Nc1ccccc1 (some centres not stated)", "Property Measured": "TGI", "Measurement": "> 100 µM"}
{"Compound": "CN1CCc2cc(O)c3cc2C1Cc1ccc(cc1)Oc1cc(ccc1O)CC1c2c(cc4c(c2O3)OCO4)CCN1C (configuration not stated)", "Property Measured": "TGI", "Measurement": "86.2 µM"}
{"Compound": "CCN1C(=O)C(N=[N+]=[N-])(c2ccccc2)C(=O)c2ccccc21 (configuration not stated)", "Property Measured": "TGI", "Measurement": "> 100 µM"}
{"Compound": "CNC(=O)OCc1cc2ccncc2c2c1[nH]c1ccccc12", "Property Measured": "TGI", "Measurement": "> 100 µM"}

###

System: RPMI-8226 leukemia
Experiment: NCI tumour cell line growth inhibition, 48 h

{"Compound": "CCCC(=O)[O-].CCCC(=O)[O-].N.N.N.N.[Co+3].[O-][Cl+3]([O-])([O-])[O-]", "TGI": "> 100 µM"}
{"Compound": "Cc1ccc(S(=O)(=O)NC(=O)C#CCOC2CCCCO2)cc1 (stereo unspecified)", "TGI": "> 100 µM"}
{"Compound": "CCCC(=O)Nc1ncnc2c1ncn2C1OC2COP(=O)(O)OC2C1OC(=O)CCC (stereo unspecified)", "TGI": "> 1000 µM"}
{"Compound": "CCCCCCCCCCCCCCCCNc1ccc2c(c1)OCCOCCOCCOCCO2", "TGI": "4.49 µM"}
{"Compound": "C=CCN(c1cc(OCc2ccccc2)c2c(c1)c(C)cn2S(=O)(=O)c1ccccc1)S(C)(=O)=O", "TGI": "> 100 µM"}
{"Compound": "CCOC(=O)NC(C(C(=O)OCC)C(=O)OCC)(C(F)(F)F)C(F)(F)F", "TGI": "> 100 µM"}
{"Compound": "CO[C@]12CCC(=O)N1C=Cc1c2[nH]c2ccccc12", "TGI": "> 100 µM"}
{"Compound": "CC1C(=O)CC[C@@]2(C)C(=O)CCCC12O (stereo partly specified)", "TGI": "> 100 µM"}
{"Compound": "CCOc1ccc(N=Nc2c(-c3ccccc3)nn(C(=O)CC(=O)Nc3cccc(C)c3)c2-c2ccccc2)cc1", "TGI": "> 100 µM"}
{"Compound": "COc1ccc2cc(C(=O)/C=C/c3ccco3)ccc2c1", "TGI": "99.3 µM"}
{"Compound": "NC(=O)OCC(COc1ccc(Cl)cc1)OC(=O)c1cc([N+](=O)[O-])cc([N+](=O)[O-])c1 (stereo unspecified)", "TGI": "> 100 µM"}
{"Compound": "N#Cc1nc(C2SCCCS2)oc1N", "TGI": "> 100 µM"}
{"Compound": "CS(=O)(=O)c1ccc(-c2[nH]c3ccc(F)cc3c2/C=N/NC(N)=S)cc1", "TGI": "6.64 µM"}
{"Compound": "CCCCCCCCCCCCCC(=O)OC1C(CO)OC(=O)C1O (stereo unspecified)", "TGI": "> 100 µM"}
{"Compound": "CCN(CC)c1nc(=O)c(C(=O)C(C)(C)C)c(C(C)(C)C)o1", "TGI": "> 100 µM"}
{"Compound": "Cc1ccc(C(CC(=O)c2ccccc2)C(C(=O)c2ccccc2)C(c2ccc(C)cc2)C2C(=O)NC(=S)NC2=O)cc1 (stereo unspecified)", "TGI": "> 50 µM"}
{"Compound": "CCCCCCCCCCCCCCC[C@@H](O)C[N+](C)(C)CCO", "TGI": "> 100 µM"}
{"Compound": "COc1ccc2[nH]cc(CN3CCC(CO)(c4ccccc4)CC3)c2c1", "TGI": "66 µM"}
{"Compound": "Cc1cc2c(=O)c3ccccc3oc2c(C#N)c1C", "TGI": "> 100 µM"}
{"Compound": "Cc1cn2c(/C=N/N=C(N)N)c(-c3cc(Cl)sc3Cl)nc2s1", "TGI": "1.73 µM"}
{"Compound": "CC1=C2[C@@H](c3ccccc3)C3C=CC2(c2ccccc23)N(C(=O)Nc2cccc3ccccc23)C1=O (stereo partly specified)", "TGI": "> 100 µM"}
